This section presents IC50 values reported for Poly [ADP-ribose] polymerase tankyrase-2 (Homo sapiens, UniProt Q9H2K2) in the literature.
MEASURED_ATTRIBUTE: IC50 (nM)

[a] COCCNC(=O)c1nc[nH]c1C(=O)N[C@H]1CC[C@@]2(CCN(c3ccccc3Cl)C2=O)CC1
[b] O=c1[nH]c(-c2cc(F)c(B(O)O)c(F)c2)nc2c1CSCC2
[c] Cn1ccc2c(=O)[nH]c(N3CCN(c4ccc(F)cc4F)CC3)nc21
[d] CC(C)(O)CNC(=O)c1nc[nH]c1C(=O)N[C@H]1CC[C@@]2(CCN(c3cccc(Cl)c3)C2=O)CC1
Task item: # rank_down: sort by IC50, max first Returns: the labels arranged in the requested order.
Reply: d, c, b, a

====

pIC50: −log10 of the molar value.
Reported pIC50 against Poly [ADP-ribose] polymerase tankyrase-2 (Homo sapiens, UniProt Q9H2K2), gathered from multiple publications, appears below.
MEASURED_ATTRIBUTE: pIC50

Example cases with answers are listed next.
> print(dat)
                                   molecule  measured.attribute  recorded.measurement
1  O=C(CCc1ccccc1)N(Cc1nc2c(c(=O)[nH]1)COCC2)Cc1nccs1               pIC50                  5.69
2  CC(C)C1Cc2[nH]c(=O)c3ccc(Cl)cc3c2CO1 (racemic)               pIC50                  7.27
3  Cc1ccc2c(=O)[nH]c3c(c2n1)COC(C(C)(C)C)C3 (racemic)               pIC50                  7.11

[I] COC[C@H](C)NC(=O)c1nc[nH]c1C(=O)N[C@H]1CC[C@H](C(=O)Nc2ccc(F)cc2Cl)CC1
[II] Cn1ncc2c(=O)[nH]c(N3CCC(C#N)(c4ccccn4)CC3)nc21
Task item: Task for the reader: decide whether I or II has the larger pIC50. Answer by stating the label of the chosen item.
Reply: II

[I] COC1CN(C(=O)c2nc[nH]c2C(=O)N[C@H]2CC[C@H](C(=O)Nc3ccc(F)cc3Cl)CC2)C1
[II] O=C(N[C@H]1CC[C@H](C(=O)Nc2ccc(F)cc2Cl)CC1)c1cnn2cccnc12
Task item: Lab log: flag the item ( I or II ) with the smaller pIC50 figure. Kindly give the label for the entry you pick.
Reply: II
(II: 7.13, I: 7.77)

====

Below are pIC50 measurements against Poly [ADP-ribose] polymerase tankyrase-2 (Homo sapiens, UniProt Q9H2K2) drawn from the literature.
pIC50: −log10 of the molar value.
MEASURED_ATTRIBUTE: pIC50

Recorded pIC50, per entry:
> print(dat)
                                   compound                                    system  measured.attribute  recorded.measurement
1  CCCn1ccc2c(=O)[nH]c(-c3ccc(C(F)(F)F)cc3)nc21  Poly [ADP-ribose] polymerase tankyrase-2 (Homo sapiens, UniProt Q9H2K2)               pIC50                  6.19
2  O=C(N[C@H]1CC[C@@]2(CCN(c3ccc(F)cc3Cl)C2=O)CC1)c1cnc2ccccn12  Poly [ADP-ribose] polymerase tankyrase-2 (Homo sapiens, UniProt Q9H2K2)               pIC50                  5.92
3  O=C(N[C@H]1CC[C@@]2(CCN(c3ccc(F)cc3Cl)C2=O)CC1)c1[nH]cnc1C(=O)N1CC2(COC2)C1  Poly [ADP-ribose] polymerase tankyrase-2 (Homo sapiens, UniProt Q9H2K2)               pIC50                  8.32
4  O=C(CCc1ccccc1)N(CCO)Cc1nc2c(c(=O)[nH]1)COCC2  Poly [ADP-ribose] polymerase tankyrase-2 (Homo sapiens, UniProt Q9H2K2)               pIC50                  5.57

[a] O=C(N[C@H]1CC[C@@]2(CCN(c3ccc(F)cc3Cl)C2=O)CC1)c1cnc2cccnn12
[b] Cc1cc(C)n2ncc(C(=O)N[C@H]3CC[C@H](C(=O)Nc4cnccc4Cl)CC3)c2n1
[c] CC1(C2Cc3[nH]c(=O)c4ccccc4c3CO2)COC1 (racemic)
[d] COCCNC(=O)c1nc[nH]c1C(=O)N[C@H]1CC[C@@]2(CCN(c3cccc(Cl)c3)C2=O)CC1
Task item: Rank by pIC50 (largest to smallest). Return value: ordered labels per request.
Reply: a, b, c, d
(a: 8.15, b: 7.85, c: 7.00, d: 6.80)
